Molecular target: hGIPR (Homo sapiens)
Sequence (P48546 22-466): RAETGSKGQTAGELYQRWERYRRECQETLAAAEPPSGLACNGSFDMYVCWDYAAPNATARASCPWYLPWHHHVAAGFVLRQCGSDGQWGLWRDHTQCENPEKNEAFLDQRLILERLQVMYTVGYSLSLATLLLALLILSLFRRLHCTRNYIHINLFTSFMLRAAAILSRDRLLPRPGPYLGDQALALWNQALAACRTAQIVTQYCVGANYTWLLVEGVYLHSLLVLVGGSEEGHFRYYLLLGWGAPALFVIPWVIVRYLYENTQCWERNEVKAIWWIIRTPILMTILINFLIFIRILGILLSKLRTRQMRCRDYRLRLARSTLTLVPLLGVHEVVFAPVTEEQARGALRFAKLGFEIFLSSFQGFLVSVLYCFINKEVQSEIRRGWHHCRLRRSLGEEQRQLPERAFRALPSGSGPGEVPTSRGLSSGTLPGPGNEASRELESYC
Test: Functional cAMP activation in the presence of 0.1% casein (no HSA);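 also: intracellular cAMP rise after 30 min at 37 °C read by HTRF against a standard curve, scaled between buffer alone (0%) and top control ligand concentration (100%), four-parameter fit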
Format: cell-based
Conditions: read-out: Relative cAMP EC50, hGIPR
Starred links: 1 amine or outer side, 2 acyl side, 3 side chain; linkers in the order of their positions; H or OH if unused. Non-standard residues stand in square brackets, D forms with d. Groups on a side chain read outwards from the residue. No end group written: not given here. *: point of attachment. C18 diacid = O=C(O)CCCCCCCCCCCCCCCCC(=O)*; αMePhe(2-F) = C[C@](N)(Cc1ccccc1F)C(=O)O; γGlu = O=C(O)[C@H](CCC(=O)[*:2])N[*:1]; αMeY = C[C@](N)(Cc1ccc(O)cc1)C(=O)O; 4Pal = N[C@@H](Cc1ccncc1)C(=O)O; αMeL = CC(C)C[C@](C)(N)C(=O)O; αMeS = C[C@](N)(CO)C(=O)O; Orn = NCCC[C@H](N)C(=O)O; AEEA = NCCOCCOCC(=O)O; Aib = CC(C)(N)C(=O)O
Collected EC50 values appear next to each entry.
Form entry: value (nM) — number only.

| Substance | Target Under Test | Assay Endpoint | Result Units | Reported |
| --- | --- | --- | --- | --- |
| Y[Aib]QGT[αMePhe(2-F)]TSD[4Pal][αMeS]I[αMeL]LD[Orn]K([γGlu-γGlu-C18 diacid])AQ[Aib]QFI[dE][αMeY]LQEGGPSSGEPPPEGTE-NH2 [Example 528] | hGIPR (Homo sapiens) | EC50 | nM | 0.0333 |
| H-Y[Aib]QGT[αMePhe(2-F)]TSD[4Pal][αMeS]I[αMeL]LD[Orn]K([γGlu-γGlu-C18 diacid])AQ[Aib][Orn]FI[dE][αMeY]LAEGGPSSGEPPPSGTE-NH2 [Example 544] | hGIPR (Homo sapiens) | EC50 | nM | 0.041 |

Exercise: What does the data say about its EC50? Entry: H-Y[Aib]QGT[αMePhe(2-F)]TSD[4Pal]SI[αMeL]LD[Orn]K([AEEA-γGlu-C18 diacid])AQ[Aib][Orn]FIEYLIEGGPSSGEPPPEEG-NH2 [Example 477]
Key: 0.0127
